procedureText: Metabolic stability in mouse hepatocytes assessed as hepatic extraction ratio at 2 uM measured up to 120 mins by LC-MS/MS analysis
experimentalReadout: hepatic extraction ratio at 2 h, 2 µM
// return just the number, without any unit appended

The reported hepatic extraction ratio at 2 h, 2 µM of the compound `C[C@H]1CCCN(Cc2cc3c(c(C(F)(F)F)c2)CN(c2cccc([C@]4(c5nncn5C)C[C@@H](C)C4)c2)C3=O)C1` was 0.9

* * *

procedureText: Protein binding in human plasma assessed as unbound fraction at 5 uM incubated for 5 hrs by equilibrium dialysis based LC-MS analysis
experimentalReadout: fraction unbound at 5 h, 5 µM
// return just the number, without any unit appended

The reported fraction unbound at 5 h, 5 µM of the compound `C[C@H]1CCCN(Cc2cc3c(c(C(F)(F)F)c2)CN(c2cccc([C@]4(c5nncn5C)C[C@@H](C)C4)c2)C3=O)C1` was 0.0522

The reported fraction unbound at 5 h, 5 µM of the compound `C[C@H]1CCCN(Cc2cc3c(C(F)(F)F)cn(-c4cccc([C@]5(c6nncn6C)C[C@@H](C)C5)c4)c(=O)c3[nH]2)C1` was 0.0379

* * *

procedureText: Apparent permeability across basolateral to apical side in human Caco-2 cells at 2 uM incubated for 2 hrs by LC-MS/MS analysis
experimentalReadout: Papp B→A at 2 h, 2 µM (×10⁻⁶ cm/s)
Report only the number, with the unit ×10⁻⁶ cm/s understood.

The reported Papp B→A at 2 h, 2 µM of the compound `C[C@H]1CCCN(Cc2cc3c(c(C(F)(F)F)c2)CN(c2cccc([C@]4(c5nncn5C)C[C@@H](C)C4)c2)C3=O)C1` was 35.8

* * *

procedureText: in vivo
conditionDetails: male, CD-1(ICR), mouse, iv, 1 mg/kg
Description: AUCinfinity in male CD-1(ICR) mouse at 1 mg/kg, iv measured after 1440 mins by LC-MS/MS analysis
experimentalReadout: AUC(0-inf) at 24 h
Kindly write the number and append the unit.

The reported AUC(0-inf) at 24 h of the compound `C[C@H]1CCCN(Cc2cc3c(C4CC4)cn(-c4cccc([C@]5(c6nncn6C)C[C@@H](C)C5)c4)c(=O)c3[nH]2)C1` was 205 ng·h/mL

The reported AUC(0-inf) at 24 h of the compound `C[C@H]1CCCN(Cc2cc3c(C(F)(F)F)cn(-c4cccc([C@]5(c6nncn6C)C[C@@H](C)C5)c4)c(=O)c3[nH]2)C1` was 292 ng·h/mL

The reported AUC(0-inf) at 24 h of the compound `C[C@H]1CCCN(Cc2cc3c(c(C(F)(F)F)c2)CN(c2cccc([C@]4(c5nncn5C)C[C@@H](C)C4)c2)C3=O)C1` was 281 ng·h/mL

* * *

Assign half-life at 2 h, 2 µM to each entry below.
procedureText: in vitro
conditionDetails: rhesus monkey, hepatocytes
Report only the number, with the unit min understood.

The reported half-life at 2 h, 2 µM of the compound `C[C@H]1CCCN(Cc2cc3c(c(C(F)(F)F)c2)CN(c2cccc([C@]4(c5nncn5C)C[C@@H](C)C4)c2)C3=O)C1` was 9.3

The reported half-life at 2 h, 2 µM of the compound `C[C@H]1CCCN(Cc2cc3c(C(F)(F)F)cn(-c4cccc([C@]5(c6nncn6C)C[C@@H](C)C5)c4)c(=O)c3[nH]2)C1` was 12.2

* * *

procedureText: Apparent permeability across basolateral to apical side in human Caco-2 cells assessed as drug recovery at 2 uM incubated for 2 hrs by LC-MS/MS analysis
experimentalReadout: recovery at 2 h, 2 µM (%)
Report only the number, with the unit % understood.

The reported recovery at 2 h, 2 µM of the molecule `C[C@H]1CCCN(Cc2cc3c(c(C(F)(F)F)c2)CN(c2cccc([C@]4(c5nncn5C)C[C@@H](C)C4)c2)C3=O)C1` was 81.3
